test: melting temperature; fluorescence melt of hairpins on a sequencing array, two-state fit, raised by 9.35 °C to match UV melts; details: sodium 0.088 M
parameter measured: Tm (°C)

>>> df
                            residue_codes  parameter_measured  units  experimental_value
 0  GCATCCGGAAACGGATAC (.(((((....))))).)                  Tm     °C                39.7
 1          ACAAGGAAACTTGT (((((....)))))                  Tm     °C                40.3
 2  GGTGGTGGAAACACCATC (.(((((....))))).)                  Tm     °C                56.2
 3    GCACCCGAAAGGGTTGC ((((((....))).)))                  Tm     °C                63.3
 4    GTATTCGAAAGAAGTAC ((((((....))).)))                  Tm     °C                24.9
 5      GATCGACTTGTCGATC ((((((....))))))                  Tm     °C                68.3
 6  GACTGCGGAAACACAGTC (((((.(....).)))))                  Tm     °C                47.4
 7  GGAGATGGAAACATCTCC (((((((....)))))))                  Tm     °C                  65
 8      GATCTTTGGGAAGATC ((((((....))))))                  Tm     °C                45.6
 9  GGCTGGTCGAAAGACGCC (((..(((....))))))                  Tm     °C                52.1
10  GGAATCCGAAAGGAGTCC (((.(((....))).)))                  Tm     °C                55.8
11  GACTGCGGAAACGCAACC (..((((....))))..)                  Tm     °C                25.1
12  GCCCCGCGAAAGCGGCGC ((.((((....)))).))                  Tm     °C                59.7
